Each recorded value in this set is attributed to ChEMBL document CHEMBL1156829.

procedureText: NOVARTIS: Cytotoxicity against human hepatocellular carcinoma cell line (Huh7)
Format: toxicity, cell-based, Huh-7
experimentalSetup: Huh7 cells (hepatocellular carcinoma cell line)
observedProperty: CC50

Cn1c(COc2ccc(Cl)cc2Cl)[n+](C)c2ccccc21 :: > 10 µM
O=C(NN1CCOCC1)c1ccc(Br)cc1 :: > 10 µM
C=C[C@H]1CN2CC[C@H]1C[C@H]2[C@H](OC(=O)c1ccc(F)cc1)c1ccnc2ccccc12 :: > 10 µM

Reported CC50 for CCOC(=O)c1cccc(NC(=O)CCn2nc(C)c3c(C)n(-c4ccccc4)nc3c2=O)c1 was > 100 µM

Reported CC50 for CC(O)c1ccc(NC(=O)c2cnn3c2NC(c2ccco2)CC3C(F)(F)F)cc1 (stereo unspecified) was > 10 µM

Reported CC50 for CCOc1ccc(-c2noc(-c3ccncc3)n2)cc1OCC was > 10 µM

Reported CC50 for COc1cccc(CC2(CO)CCCN(Cc3sc(N4CCCC4)nc3Cl)C2)c1 (stereo unspecified) was > 100 µM

Reported CC50 for Fc1cc(F)c(C2SCCN2C(=S)Nc2cccc(C(F)(F)F)c2)c(F)c1 (stereo unspecified) was > 100 µM

Reported CC50 for O=C(NCCCCNc1ccnc2cc(Cl)ccc12)c1ccc(Br)cc1 was > 8.73 µM

---

System: Plasmodium falciparum
procedureText: NOVARTIS: Inhibition of Plasmodium falciparum 3D7 (drug-susceptible) proliferation in erythrocyte-based infection assay
Format: functional, organism-based
experimentalSetup: Plasmodium falciparum, 3D7
observedProperty: pEC50
Note on units: pEC50 is unitless, being -log10 of a concentration expressed in mol/L.

Solved entries (count: 3):
COc1cccc2c1C(=O)c1c(O)c3c(c(O)c1C2=O)CC(O)(C(=O)CO)CC3OC1CC(N)C(O)C(C)O1 (stereo not given) :: 6.77
COc1cc(NCc2cnc(N)nc2N)cc(OC)c1 :: 6.48
O=C(Nc1ccc(-c2nc3cc(NC(=O)c4cccc([N+](=O)[O-])c4)ccc3[nH]2)cc1)c1cccc([N+](=O)[O-])c1 :: 6.31

Reported pEC50 for CN(C)c1ccc(/C=C2\SC(=N)N(c3nccs3)C2=O)cc1 was 6.65

Reported pEC50 for CC[N+]1(CCOc2ccc(C34CC5CC(CC(C5)C3)C4)cc2)CCCCC1 was 6.00

---

procedureText: NOVARTIS: Cytotoxicity against human hepatocellular carcinoma cell line (Huh7)
Format: toxicity, cell-based, Huh-7
experimentalSetup: Huh7 cells (hepatocellular carcinoma cell line)
observedProperty: CC50

Solved entries (count: 6):
C/C(=C\c1csc(C)n1)[C@@H]1C[C@@H]2O[C@]2(C)CCC[C@H](C)[C@H](O)[C@@H](C)C(=O)C(C)(C)[C@@H](O)CC(=O)O1 [PATUPILONE] :: > 6.25 µM
C=C1C=CN(Cc2ccccc2)c2ccc(OC)cc21 :: > 10 µM
Clc1ccc2c(N3CCCC3)ccnc2c1 :: 64.5 µM
O=C(C[n+]1cc(-c2ccccc2)n2c1CCC2)c1ccc(C2CCCCC2)cc1 :: 17.1 µM
Fc1ccccc1CCNc1ncnc2c1[nH]c1ccccc12 :: 14.3 µM
COC(=O)c1c(S(=O)(=O)NCc2cccc(Cl)c2)sc2c1CCN(C(=O)C1CCCO1)C2 (stereo not given) :: > 10 µM

Reported CC50 for O=[N+]([O-])c1ccc(-c2nc3ccccc3n2-c2cc(-c3ccccc3)nn2-c2ccccc2)cc1 was > 10 µM

Reported CC50 for COc1cccc(-c2ccc(O)c(CN3CCC(C)CC3)c2)n1 was 75 µM

Reported CC50 for Cc1ccc(C(=O)C(C)[n+]2ccc(N(C)C)cc2)cc1 (stereo not given) was 35.3 µM

Reported CC50 for CCC(C)NC(=O)c1cc(NC(=O)c2cccc(Cl)c2)ccc1N1CCCCC1 (stereo not given) was 15.4 µM

Reported CC50 for CCCCOc1ccc(N(C(C)=O)C2=C(N3CCOCC3)C(=O)c3ccccc3C2=O)cc1 was 41 µM

Reported CC50 for COC(=O)C1=C(C)NC2=C(C(=O)CC(c3ccc(OC)c(OC)c3)C2)C1c1cccc(Cl)c1Cl (stereo not given) was > 100 µM

Reported CC50 for C=C(C)[C@@]12O[C@@H]1[C@@]1(C)C(=CC2=O)CC[C@@H](O)[C@@H]1C was > 10 µM

Reported CC50 for N#Cc1cc(N2CC3CC(C2)c2cccc(=O)n2C3)c([N+](=O)[O-])cc1C#N (stereo not given) was > 100 µM

Reported CC50 for COc1ccccc1NC(=S)N1CCN(c2ccc([N+](=O)[O-])cc2)CC1 was > 100 µM

Reported CC50 for O=c1c2sccc2nc(SCc2cccc([N+](=O)[O-])c2)n1C1CC1 was > 10 µM

Reported CC50 for CCCCN1C=Nc2cc(C(=O)NCc3ccc(OC)cc3)ccc2C1 was > 10 µM

Reported CC50 for Cc1onc(-c2ccccc2)c1C(=O)N1CCC(CNc2c(-c3ccc(F)cc3)nc3ccccn23)CC1 was 45 µM

Reported CC50 for CCOC(=O)CSC1=Nc2ccccc2C2=NC(Cc3ccccc3)C(=O)N12 (stereo not given) was > 10 µM

Reported CC50 for COc1ccc(Nc2nc(NN=Cc3cccc([N+](=O)[O-])c3OC)nc(Nc3ccc([N+](=O)[O-])cc3)n2)cc1 was > 100 µM

Reported CC50 for CCOC(=O)c1sc(Nc2c(Cl)cc(S(N)(=O)=O)cc2Cl)nc1C was > 10 µM

Reported CC50 for OC1(C(F)(F)F)CC(c2ccccc2)=NN1c1nncc(-c2ccccc2)n1 (stereo not given) was > 10 µM

Reported CC50 for CC(C)CN1C(=O)c2ccccc2C(C(=O)Nc2ccc(CN3CCC(C)CC3)cc2)C1c1cccs1 (stereo not given) was > 100 µM

Reported CC50 for CC(=O)NCCc1ccc(O)cc1 was > 10 µM

Reported CC50 for COCCCNC(=O)c1cc(NC(=O)CCCCl)ccc1N1CCc2ccccc2C1 was 1.13 µM

Reported CC50 for CCOc1ccc(C(=O)Nc2cc(OC)ccc2OC)cc1 was > 10 µM

---

procedureText: NOVARTIS: Cytotoxicity against human hepatocellular carcinoma cell line (Huh7)
Assay type: toxicity, cell-based, Huh-7
experimentalSetup: Huh7 cells (hepatocellular carcinoma cell line)
observedProperty: CC50

CCCCn1c(=N)n(CC(O)c2ccc(Br)cc2)c2ccccc21 (stereo not drawn) :: 22.5 µM
C=CC[n+]1cccc2c3ccccc3ccc21 :: > 100 µM
CCOC(=O)c1cnc2c(C)cccc2c1Nc1ccc(C(C)=O)cc1 :: > 100 µM
COc1cccc2c(C)nc(N=C(N)N)nc12 :: 53.5 µM
FC(F)(F)COc1nc(N2CCCCC2)nc(N(c2ccccc2)c2ccccc2)n1 :: > 100 µM
Fc1ccc(-c2cn3c([n+]2-c2ccccc2)SCC3)cc1 :: > 100 µM

Reported CC50 for CCN1CCCC1CNc1ncnc2c1[nH]c1ccc(C)cc12 (stereo not drawn) was 21 µM

Reported CC50 for CC(C)(C)OC(=O)N1CCC(c2c(C(=O)Nc3cccc(C(F)(F)F)c3)cnn2-c2ccc(F)cc2F)CC1 was > 100 µM

Reported CC50 for Cc1cc(NCCCN(C)C)c2ccccc2n1 was 53.2 µM

Reported CC50 for COc1cccc(NC(=O)N(Cc2ccccc2)C(C)c2nc3ccccc3c(=O)n2-c2cc(C)ccc2OC)c1 (stereo not drawn) was > 10 µM

Reported CC50 for O=C(C1CC1)N1CCN=C1SCc1ccc(C(F)(F)F)cc1 was > 100 µM

Reported CC50 for O=[N+]([O-])c1ccc(N2CCN(C(=S)Nc3ccccc3)CC2)cc1 was > 100 µM

Reported CC50 for CCCNC(=O)N1CCC2(CC1)CC(=O)c1ccccc1O2 was > 10 µM

Reported CC50 for N=c1ccn(CC(=O)N2CCCc3ccccc32)c2ccccc12 was > 100 µM

Reported CC50 for Cc1cc(Nc2cccc(C(F)(F)F)c2)nc(NCc2ccccc2)n1 was 15.6 µM

Reported CC50 for CCOC(=O)c1sc(NC(=O)CSc2nnc(CNC(=O)COc3ccccc3)n2C)c(C(=O)OCC)c1C was > 10 µM

---

procedureText: NOVARTIS: Cytotoxicity against human hepatocellular carcinoma cell line (Huh7)
Assay type: toxicity, cell-based, Huh-7
experimentalSetup: Huh7 cells (hepatocellular carcinoma cell line)
Simple rule here: CC50 less than 20 µM is Y, otherwise N.

CCOC(=O)c1sc2ncnc(NCc3ccc(F)cc3)c2c1C :: N
CCOC(=O)c1c(C)nc2c(c1C)c(=O)oc1ccccc12 :: N
CCOC(=O)C1=C(c2ccccc2)N=c2sc(=Cc3cc(OC)c(OC)c(OC)c3)c(=O)n2C1c1c(OC)ccc2ccccc12 (stereo unspecified) :: N
COc1ccc(C[C@H](N)C(=O)N[C@H]2[C@@H](O)[C@H](n3cnc4c(N(C)C)ncnc43)O[C@@H]2CO)cc1 [PUROMYCIN] :: Y
CCCCOc1ccc(C(=O)N(C)CCCNc2ccnc3cc(Cl)ccc23)cc1 :: Y

Strictly below 20 µM in CC50? Nc1ccc2nc3ccc(N)cc3[s+]c2c1 Y

Strictly below 20 µM in CC50? CCN1C=C(c2ccc(C)cc2)S/C1=C\c1sc2ccccc2[n+]1C Y
